- assayed-target: Recombinant human LTC4 synthase (Homo sapiens, UniProt Q16873)
- Construct: made in house; host or cells: Pichia pastoris
- Sequence (Q16873 1-150): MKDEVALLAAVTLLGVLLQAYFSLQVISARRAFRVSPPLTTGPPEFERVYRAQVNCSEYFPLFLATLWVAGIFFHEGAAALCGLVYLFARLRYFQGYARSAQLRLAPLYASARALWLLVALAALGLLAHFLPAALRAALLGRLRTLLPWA
- assay-summary: LTC4 synthase in vitro assay (HTRF detection of LTC4)
- Format: biochemical
- measurement-conditions: total concentration of title compound in the assay 10 μM; HTRF method
experimental-readout: inhibition at 10 µM (%)
Answers are plain numbers, in %.

CCCCc1ccc(C(=O)Nc2ccc([S+]([O-])c3ccc(NC(=O)c4ccc(CCCC)cc4)c(C(=O)O)c3)cc2C(=O)O)cc1 ... 99
O=C(Nc1ccc(Oc2ccc([N+](=O)[O-])cc2)cc1C(=O)O)c1ccc(Cl)cc1Cl ... 93
CN(c1cc(Oc2ccc(NC(=O)c3cccc(Cl)c3)cc2)cc(C(=O)O)c1)c1ccc(F)c(F)c1 ... 96
CCCCOc1ccc(S(=O)(=O)Nc2ccc(Oc3cccc(C(=O)NS(=O)(=O)c4ccc(F)cc4)c3)cc2C(=O)O)cc1 ... 94
Cc1nc(C(F)(F)F)ccc1C(=O)Nc1ccc(Oc2ccc(NS(=O)(=O)c3ccc(F)c(Cl)c3)c(C(=O)O)c2)cc1 ... 100
CC(C)Oc1ccc(C(=O)Nc2ccc(Oc3ccc(N(C)C(=O)c4ccc(C(F)(F)F)cc4)cc3)cc2C(=O)O)cc1 ... 99
CN(C(=O)c1ccc(C(F)(F)F)cc1)c1ccc(Oc2ccc(NC(=O)c3ccc(Cl)cc3Cl)c(C(=O)O)c2)cc1 ... 98
CC(C)Oc1ccc(C(=O)Nc2ccc(Oc3ccc(NC(=O)c4ccccc4)c(C(=O)O)c3)cc2)cc1 ... 98
O=C(O)c1cc(Nc2ccc(F)c(F)c2)cc(Oc2ccc(Nc3ccc(Cl)cc3)cc2)c1 ... 97
CC(C)Oc1ccc(C(=O)Nc2ccc(Oc3ccc(NC(=O)c4ccccc4)cc3)cc2CC(=O)O)cc1 ... 87

The following compounds each have a reported value; give each one's inhibition at 10 µM.
1. O=C(Nc1ccc(Oc2cccc(Oc3ccc(F)c(F)c3)c2)cc1C(=O)O)c1ccc(OC2CCCC2)cc1
2. COc1ccc(S(=O)(=O)N(C)c2ccc(Oc3ccc(NC(=O)c4cc(Cl)ccc4Cl)c(C(=O)O)c3)cc2)cc1
3. O=C(Nc1ccc(S(=O)(=O)c2ccc(NC(=O)c3cccc(Cl)c3)c(C(=O)O)c2)cc1C(=O)O)c1cccc(Cl)c1
4. CCCCc1ccc(S(=O)(=O)N(C)c2ccc(Oc3ccc(NC(=O)c4ccc(Cl)cc4Cl)c(C(=O)O)c3)cc2)cc1
5. O=C(Nc1ccc(Sc2ccc(NC(=O)c3ccc(C(F)(F)F)cc3)c(C(=O)O)c2)cc1C(=O)O)c1ccc(C(F)(F)F)cc1
6. O=C(O)c1cc(Sc2ccc(NS(=O)(=O)c3ccc(Cl)cc3)cc2)ccc1NS(=O)(=O)c1ccc(Cl)cc1

94
99
98
100
99
100
